Data credit: patent US20220340678A1

Molecular target: T1, histidine-tagged human uPAR (Sino#10925-H08H) (human, UniProt Q03405 23-303)
T1 construct: also called uPAR-His
Test: BLI (Octet), antibody on anti-mouse Fc sensor, uPAR in solution
REPORTED_PROPERTY: koff (s⁻¹)
State just the number; it will be interpreted in s⁻¹.

**Q:** Which koff reading was recorded for the binder M1 (antibody, V domains shown, Mouse hybridoma antibody; also called anti-uPAR antibody M1; parental M1) VH: EVQLQQSGAELVRPGASVKLSCTASGFNIKDEYINWVKQRPEQGLEWIGWIDPENGDTEYASKFQGKATITADTSSNTAYLQLSSLTSEDTAVYYCTGGNYVGWFPYWGQGTLVTVSA VL: QIVLTQSPAIMSASPGEKVTMTCSASSSVSYMHWYQQKSGTSPKRWLYDTSKLASGVPARFSGSGSGTSYSLTISSMEAEDAATYYCQQWSSNPPYTFGGGTKLEIK ?
**A:** 0.00034
